measurement_protocol: growth suppression of yeast trafficking mutant, preliminary HTS, modulators of trafficking downstream of Golgi apparatus project, 1536-format plate, OD 615 nm (AID 637)
condition_set: yeast transport mutant growth, absorbance 615 nm, 18 h; stronger effect = higher value
Could you please report measured inhibition for the items listed next?
The reply should be a number in %, with the unit left off.

Entry COc1ccc(S(=O)(=O)NCC(c2cccnc2)N2CCN(C)CC2)cc1C (centres undefined) — recorded inhibition = -2

Looking up C#CCOC(=O)C1C2C=CC(C2)C1C(=O)O (centres undefined) , I see its inhibition listed as 1.45

Recorded inhibition (compound "COc1cc(NC(=O)CN(c2cc(C)cc(C)c2)S(=O)(=O)c2c(C)noc2C)cc(OC)c1" ): -5

Measured inhibition, "Cc1nnc(SCC(=O)Nc2c(Cl)cccc2Cl)[nH]c1=O" : -2.17

Record "c1ccc(-n2ncc3c(NC4CCCCCC4)ncnc32)cc1" , field inhibition: 1.67

Briefly, inhibition measured for "COc1ccc(S(=O)(=O)Cc2ccc(C(=O)N3CCOCC3)o2)cc1" : -0.83

For this compound ( "N#Cc1cnc2sc3ccccc3n2c1=N" ), measured inhibition is 3.06

get_value(item= "COc1cc(C(=O)NCCc2ccc3c(c2)OCCO3)ccc1OCC(=O)N1CCOCC1" , readout=inhibition) returns -6.55

Field inhibition (entry CC(CCC(=O)Nc1nncs1)C(=O)O (centres undefined) ) reads 8.33

Sure, the documented inhibition for "CCOC(=O)Nc1ccc2c(c1)N(C(=O)OCCN(C)C)c1ccccc1CC2" is -9.02

Value of inhibition reported for the compound "CCOC(=O)Cn1ncc(-c2ccccc2)c1N" is -1.43

compound "COc1cccc(-n2c(SCC(=O)N3CCCC3)nc3c([nH]c4ccccc43)c2=O)c1" , inhibition observed: -1.83

The reported value for COc1cc(OC)c2c(c1)OC(c1ccc(OC)c(OC)c1)C(O)C2=O (centres undefined) in terms of inhibition is 0.82

The recorded inhibition for "Cc1noc(C(=O)Nc2ccc3c(c2)OCO3)c1Cl" is 1.67

Value of measured inhibition for the entry "C/C=C/Cn1c(SCCCc2ccccc2)nc2c1c(=O)[nH]c(=O)n2C" : 3.61

Entry under test: COc1ccc(-c2nc(CS(=O)CC(=O)NCc3ccccn3)c(C)o2)cc1 (centres undefined) . Its inhibition was -2.46

# compound "Cc1ccc(CCP(=O)(O)CN2CCOCC2)cn1" ; its inhibition = 3.61

Notebook: "C(/CCc1ccccc1)=N\n1cnnc1" , inhibition read as 8.03

# compound Cc1cccc(N2C(=O)CC(N3CCN(c4cccc(C(F)(F)F)c4)CC3)C2=O)c1 (centres undefined) ; its inhibition = -9

# compound "O=C(CSc1ncnc2nc[nH]c12)c1ccc(Cl)cc1" ; its inhibition = 2.13

Measured inhibition of O=C1c2ccccc2C(Nc2ccc(-c3nc4ccccc4[nH]3)cc2)N1Cc1ccco1 (centres undefined) : 0.5

get_value(item= "Clc1ccc(SCCCCn2ccnc2)cc1" , readout=inhibition) returns -1

Briefly, inhibition measured for COc1cc(NC(=O)C2C3C=CC(C3)C2C(=O)O)c(OC)cc1Cl (centres undefined) : -3.61

So for "O=C(CSc1nnnn1-c1ccccc1)Nc1ccc(Cl)cc1" , the logged inhibition turned out to be 6

###

measurement_protocol: MRP1 drug-resistance reversers in H69AR cells – cell-based, doxorubicin co-treatment, pilot screen (AID 601)
condition_set: H69AR cells + 2 uM doxorubicin, CellTiter-Glo, 72 h; measured here: viability with 2 uM doxorubicin; at 10 µM; stronger effect = lower value
Assign labels as follows, please: 1 for viability below 90%; -1 for viability equal to or exceeding 90%.

input: Below 90% on viability? Entry CCOC(=O)C1CCCN(C(=O)c2cn(C)c(=O)c3cc(OC)c(OC)cc23)C1 (configuration not stated)
output: -1

input: Hi there! Is viability for "CCCOc1ccc2ccccc2c1/C=N/n1cnnc1" below 90%, do you know?
output: 1

input: Lab note: confirm whether the reported viability for this molecule is below 90%, equality not counting. molecule: CCOC(=O)N1CCC(N2C(=O)c3ccccc3C2Nc2cc(Cl)c(OC)cc2OC)CC1 (configuration not stated)
output: 1

input: Would you kindly verify if viability of "COc1ccc(C(=O)NCc2nnc(SC)n2C2CCCCC2)cc1" is strictly less than 90%?
output: 1

input: viability under 90%? Item: CCOc1ccc(N(CC(=O)NC2CCCC(C)C2C)S(=O)(=O)c2c(C)noc2C)cc1 (configuration not stated)
output: 1

input: In plain terms, does COc1ccccc1S(=O)(=O)Cc1ccc(C(=O)N2CCN(c3ccc(C)cc3)C(C)C2)o1 (configuration not stated) come in under 90% for viability?
output: 1

input: Below 90% on viability? Entry "COc1ccc(S(=O)(=O)Cc2ccc(C(=O)N3CCOCC3)o2)cc1"
output: -1

input: Problem: For the molecule "CCn1c(NC(=O)c2cccc(Cn3cc(Cl)cn3)c2)nc2ccccc21" , is viability under 90%?
output: 1

input: Here's an entry: "COc1ccc(S(=O)(=O)N2CCC(C(=O)Nc3c(F)cccc3F)CC2)cc1" . Is its viability below 90%?
output: -1

input: Item "CCn1c(-c2cc(Br)ccc2O)n[nH]c1=S" : viability beneath 90%, strictly?
output: -1

input: Please indicate whether the reported viability of "Oc1ccc(-c2n[nH]c(=S)n2Cc2ccccc2)cc1" is strictly below 90%.
output: -1

input: Please state whether viability is below 90% for CCn1c(SCC(=O)Nc2cccc(C)c2)nc2c(c1=O)SC(C)C2 (configuration not stated)
output: 1

input: Determine whether this molecule shows viability lower than 90% (ties excluded): "COc1ccccc1-n1c(=O)[nH]c2c(C(N)=O)nc(-c3cccnc3)nc21"
output: 1

input: viability under 90%? Item: "COc1ccccc1N1CCN(C(=O)c2cc(C3CC3)on2)CC1"
output: -1

input: Consider "CCOc1ccc(N(CC(=O)Nc2ccc(C)c(C)c2)S(=O)(=O)c2c(C)noc2C)cc1" . Does its viability lie strictly below 90%?
output: 1

input: Lab note: viability threshold 90%. Does this molecule come in strictly under it? "CN(C)S(=O)(=O)c1ccc2c(c1)c(=O)c(C(=O)NCCCN1CCCCCC1)cn2C"
output: -1

input: Please determine if CCOC(=O)C1=C(C)Nc2nnnn2C1c1ccc(OC)c(Br)c1 (configuration not stated) is below 90% in terms of viability.
output: -1

input: In plain terms, does "O=C(C1CCN(S(=O)(=O)c2cccc3cccnc23)CC1)N1CCN(C2CCCCC2)CC1" come in under 90% for viability?
output: -1

###

So I've got a bunch of compounds here, and I need their growth inhibition values.
measurement_protocol: S. cerevisiae growth inhibition in permissive medium (OD615), pilot counter-assay for S. cerevisiae lifespan shortening project, permissive growth control (AID 705)
condition_set: OD615, 24 h, at 10 µM, stronger effect = higher value
Answer format: numeric, % implied, no suffix.

Recorded growth inhibition (compound "O=C(CSc1nnnn1-c1ccccc1)Nc1ccc(Cl)cc1" ): -4.88

Reported growth inhibition of "Cc1ccnc(SCCn2c(N3CCC(C)CC3)nc3c2c(=O)[nH]c(=O)n3C)n1" : -10.1

Per the records, this compound ( "Cc1cccc(C)c1OCc1nnc(SCC(=O)Nc2ccccc2F)o1" ) has growth inhibition equal to -12.4

Record CCC1Oc2ccccc2N(CC(=O)NCCCN2CCOCC2)C1=O (configuration not stated) , field growth inhibition: -2.59

Reported growth inhibition for "Cc1ccc(OCC(=O)NCc2ccccn2)c(Br)c1" was 2.21

Per the record, "Cc1nnc(SCCn2c(N3CCC(Cc4ccccc4)CC3)nc3c2c(=O)[nH]c(=O)n3C)s1" has growth inhibition of -2.44

# growth inhibition of "CCCCCOC(=O)CSc1nc2c(c(=O)[nH]c(=O)n2C)n1Cc1ccc(Cl)cc1" = 11.9

// field: growth inhibition; key: CCSC1=C(C#N)C(c2ccccc2OC)CC(=O)N1 (configuration not stated) ; value = -3.36

Entry under test: CC1CC(C)CN(CCCNC(=O)Cc2c(C(=O)O)[nH]c3ccccc23)C1 (configuration not stated) . Its growth inhibition was -11.5

The value of growth inhibition measured for the compound O=C1Nc2ccccc2C(O)(C(=O)NC2CC2)N1c1ccc(Cl)c(Cl)c1 (configuration not stated) turned out to be -1.51

Given item COc1cc(C2C(C(=O)Nc3ccc(F)cc3)=C(C)Nc3nc(CCCO)nn32)cc(OC)c1OC (configuration not stated) , the value recorded as its growth inhibition is -2.56

Reported growth inhibition ( "Cn1c(C(=O)NCCN2CCN(c3ccccc3F)CC2)cc2c(=O)n(C)c3ccccc3c21" ) = -0.67

Entry under test: "O=C(c1cnn(-c2ccccc2)c1-n1cccc1)N1CCN(C2CCCCC2)CC1" . Its growth inhibition was -1.61

Query Cc1nc2ccc(S(=O)(=O)NC(C(=O)N3CCC(C)CC3)C(C)C)cc2s1 (configuration not stated) yields growth inhibition of -13.4

growth inhibition recorded for this compound, "O=C(CN1C(=O)c2ccccc2S1(=O)=O)NCc1ccccc1Cl" , is -8.21

In plain terms, "Cc1ccc(S(=O)(=O)NCC(=O)N2CCCCC2)cc1" has a documented growth inhibition of -11.1

Entry "COc1cc2c(cc1OC)CN(C(=O)CSc1nc3[nH]ncc3c(=O)n1-c1ccccc1)CC2" — recorded growth inhibition = 0.33

The compound listed as COc1ccc(S(=O)(=O)NCC(c2cccnc2)N2CCN(C)CC2)cc1C (configuration not stated) shows growth inhibition equal to 1.16

// recorded growth inhibition for "CCCCOc1ccc(-c2ncc(Cl)cn2)cc1" : -14.9

The compound listed as "Cn1c(=O)cc(NCCc2ccccc2)[nH]c1=O" has a reported growth inhibition of -9.86

Please fill in: growth inhibition reported for "CCCCCCNS(=O)(=O)c1nc2nc(C)cc(C)n2n1" = -15.4

Given item "Cn1c(=O)c(=O)n(C)c2cc(S(=O)(=O)CCC(=O)N3CCOCC3)ccc21" , the value recorded as its growth inhibition is -2.16
